Just for reference, patent US20180291110A1 is where these values come from.

# Lookup of reported koff keyed by entry
Molecular target: T1, human transferrin receptor (recombinant, for surface plasmon resonance) (human, UniProt P02786 89-760)
T1 construct: also called huTfR; human transferrin receptor-biotinylated
T1 sequence (P02786 89-760 limits assumed): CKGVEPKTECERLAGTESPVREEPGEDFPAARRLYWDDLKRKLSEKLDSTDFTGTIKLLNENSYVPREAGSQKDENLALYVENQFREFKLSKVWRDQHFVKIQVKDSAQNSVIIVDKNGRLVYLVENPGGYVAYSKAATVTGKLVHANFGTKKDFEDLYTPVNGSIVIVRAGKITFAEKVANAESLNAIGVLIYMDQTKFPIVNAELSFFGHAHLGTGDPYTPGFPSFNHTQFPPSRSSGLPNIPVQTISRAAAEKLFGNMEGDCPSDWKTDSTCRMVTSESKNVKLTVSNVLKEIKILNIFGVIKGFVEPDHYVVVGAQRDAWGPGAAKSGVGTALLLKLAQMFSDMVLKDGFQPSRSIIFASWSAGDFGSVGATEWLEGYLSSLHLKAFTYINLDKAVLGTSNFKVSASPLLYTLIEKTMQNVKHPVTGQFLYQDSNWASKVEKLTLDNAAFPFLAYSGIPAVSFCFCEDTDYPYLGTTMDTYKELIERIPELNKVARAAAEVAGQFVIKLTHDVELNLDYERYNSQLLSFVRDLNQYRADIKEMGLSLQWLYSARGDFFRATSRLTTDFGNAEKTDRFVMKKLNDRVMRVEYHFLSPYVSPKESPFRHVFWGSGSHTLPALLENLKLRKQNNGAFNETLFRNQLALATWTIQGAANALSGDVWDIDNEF
Test: SPR 25C
Lab book: enter the figure in s⁻¹, no units written.

Worked set:
[
  {
    "binder": "2/99 VH20/VL14 (antibody, V domains shown) VH: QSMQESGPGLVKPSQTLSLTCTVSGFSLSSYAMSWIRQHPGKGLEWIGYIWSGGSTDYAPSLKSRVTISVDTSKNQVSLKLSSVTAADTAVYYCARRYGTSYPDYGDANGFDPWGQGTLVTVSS VL: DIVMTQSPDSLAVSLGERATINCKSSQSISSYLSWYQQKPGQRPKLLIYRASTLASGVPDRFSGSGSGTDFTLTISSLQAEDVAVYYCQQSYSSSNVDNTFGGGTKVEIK",
    "koff / s⁻¹": 0.00239
  },
  {
    "binder": "2/99 VH8/VL2 (antibody, V domains shown) VH: QQLVETGGGLIQPGGSLRLSCAASGFSLSSYAMSWVRQAPGKGLEWIGYIWSGGSTDYASWAKGRFTISKTSTTLYLQMNSLRAEDTAVYYCARRYGTSYPDYGDANGFDPWGQGTLVTVSS VL: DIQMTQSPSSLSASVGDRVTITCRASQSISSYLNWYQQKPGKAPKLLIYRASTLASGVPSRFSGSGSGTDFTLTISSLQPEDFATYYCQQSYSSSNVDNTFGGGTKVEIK",
    "koff / s⁻¹": 0.00101
  }
]

Please give the measured koff for this binder: 2/99 VH12/VL10 (antibody, V domains shown) VH: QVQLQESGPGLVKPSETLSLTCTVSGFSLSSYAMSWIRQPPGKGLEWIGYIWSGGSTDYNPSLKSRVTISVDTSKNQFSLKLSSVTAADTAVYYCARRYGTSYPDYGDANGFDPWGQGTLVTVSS VL: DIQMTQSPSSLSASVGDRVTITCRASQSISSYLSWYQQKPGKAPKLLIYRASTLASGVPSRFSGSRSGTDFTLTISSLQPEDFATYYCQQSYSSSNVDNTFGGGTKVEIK
0.00779
